system: Human Oral Mucosa Explant Tissues; test: Effect of final gel pH on anthocyanin uptake into human oral mucosa explant tissues; format: in vitro ADME; settings: explant sample 004; 10% w/w FBR gel
# Anthocyanin uptake, Gel pH 3.5 annotations
Numeric answer only, unit pmol per mg tissue assumed.

| compound | Anthocyanin uptake, Gel pH 3.5 [pmol per mg tissue] |
| --- | --- |
| CC1OC(OCC2OC(Oc3cc4c(O)cc(O)cc4[o+]c3-c3ccc(O)c(O)c3)C(OC3OCC(O)C(O)C3O)C(O)C2O)C(O)C(O)C1O (stereo not shown) [cyanidin 3-xylosylrutinoside] | 3.6 |
| C[C@@H]1O[C@@H](OC[C@H]2O[C@@H](Oc3cc4c(O)cc(O)cc4[o+]c3-c3ccc(O)c(O)c3)[C@H](O)[C@@H](O)[C@@H]2O)[C@H](O)[C@H](O)[C@H]1O [cyanidin 3-rutinoside] | 26.3 |
| OC[C@H]1O[C@@H](Oc2cc3c(O)cc(O)cc3[o+]c2-c2ccc(O)c(O)c2)[C@H](O[C@@H]2OC[C@@H](O)[C@H](O)[C@H]2O)[C@@H](O)[C@@H]1O.[Cl-] [Cyanidin 3-sambubioside, cyanidin 3-sambubioside] | 1.3 |

Here is the next item to consider.
Request: For OC[C@H]1O[C@@H](Oc2cc3c(O)cc(O)cc3[o+]c2-c2ccc(O)c(O)c2)[C@H](O)[C@@H](O)[C@@H]1O [cyanidin 3-glucoside] , write its Anthocyanin uptake, Gel pH 3.5.
Result: 1.6

* * *

Tested on: Human Oral Mucosa Explant Tissues
Experiment: Effect of final gel pH on anthocyanin uptake into human oral mucosa explant tissues
Type: in vitro ADME
Details: explant sample 007; 10% w/w FBR gel
Protocol: Anthocyanin content in sera, saliva, and tissue explants was evaluated by an HPLC-MS assay. The respective samples (sera, saliva or tissue homogenates) were dissolved in 90% solvent A (water plus 1% formic acid) and 10% solvent B (acetonitrile plus 1% formic acid) and then separated on a Symmetry C18 reversed-phase column and analyzed using a Waters 2695 gradient HPLC separation module equipped with a 996 photodiode-array (PDA) UV/visible absorbance detector (Milford, Mass.). […]
measured endpoint: % change 3.5 to 6.5
I'd appreciate it if you wrote the number followed by its unit.

| compound | tested target | % change 3.5 to 6.5 |
| --- | --- | --- |
| OC[C@H]1O[C@@H](Oc2cc3c(O)cc(O)cc3[o+]c2-c2ccc(O)c(O)c2)[C@H](O[C@@H]2OC[C@@H](O)[C@H](O)[C@H]2O)[C@@H](O)[C@@H]1O.[Cl-] [Cyanidin 3-sambubioside, cyanidin 3-sambubioside] | Human Oral Mucosa Explant Tissues | −14.6% |
| C[C@@H]1O[C@@H](OC[C@H]2O[C@@H](Oc3cc4c(O)cc(O)cc4[o+]c3-c3ccc(O)c(O)c3)[C@H](O)[C@@H](O)[C@@H]2O)[C@H](O)[C@H](O)[C@H]1O [cyanidin 3-rutinoside] | Human Oral Mucosa Explant Tissues | 45.1% |

Request: Provide % change 3.5 to 6.5, system Human Oral Mucosa Explant Tissues, entry OC[C@H]1O[C@@H](Oc2cc3c(O)cc(O)cc3[o+]c2-c2ccc(O)c(O)c2)[C@H](O)[C@@H](O)[C@@H]1O [cyanidin 3-glucoside]
Result: 34.5%

Request: Provide % change 3.5 to 6.5, system Human Oral Mucosa Explant Tissues, entry CC1OC(OCC2OC(Oc3cc4c(O)cc(O)cc4[o+]c3-c3ccc(O)c(O)c3)C(OC3OCC(O)C(O)C3O)C(O)C2O)C(O)C(O)C1O (stereo not shown) [cyanidin 3-xylosylrutinoside]
Result: −9.4%

* * *

# % change 3.5 to 6.5, Avg. ± SEM annotations
system: Human Oral Mucosa Explant Tissues; experiment: Effect of final gel pH on anthocyanin uptake into human oral mucosa explant tissues; type: in vitro ADME; settings: average of explant samples; 10% w/w FBR gel
Numeric answer only, unit % assumed.

Example compounds with recorded % change 3.5 to 6.5, Avg. ± SEM:
| compound | reported value |
| --- | --- |
| C[C@@H]1O[C@@H](OC[C@H]2O[C@@H](Oc3cc4c(O)cc(O)cc4[o+]c3-c3ccc(O)c(O)c3)[C@H](O)[C@@H](O)[C@@H]2O)[C@H](O)[C@H](O)[C@H]1O [cyanidin 3-rutinoside] | 956.3 |
| OC[C@H]1O[C@@H](Oc2cc3c(O)cc(O)cc3[o+]c2-c2ccc(O)c(O)c2)[C@H](O)[C@@H](O)[C@@H]1O [cyanidin 3-glucoside] | 85.6 |

Request: Provide % change 3.5 to 6.5, Avg. ± SEM, system Human Oral Mucosa Explant Tissues, entry CC1OC(OCC2OC(Oc3cc4c(O)cc(O)cc4[o+]c3-c3ccc(O)c(O)c3)C(OC3OCC(O)C(O)C3O)C(O)C2O)C(O)C(O)C1O (stereo not shown) [cyanidin 3-xylosylrutinoside]
Result: 140.6

Request: Provide % change 3.5 to 6.5, Avg. ± SEM, system Human Oral Mucosa Explant Tissues, entry OC[C@H]1O[C@@H](Oc2cc3c(O)cc(O)cc3[o+]c2-c2ccc(O)c(O)c2)[C@H](O[C@@H]2OC[C@@H](O)[C@H](O)[C@H]2O)[C@@H](O)[C@@H]1O.[Cl-] [Cyanidin 3-sambubioside, cyanidin 3-sambubioside]
Result: 89.0

* * *

# Anthocyanin uptake, Gel pH 3.5 annotations
system: Human Oral Mucosa Explant Tissues; test: Effect of final gel pH on anthocyanin uptake into human oral mucosa explant tissues; format: in vitro ADME; conditions: explant sample 002; 10% w/w FBR gel
Numeric answer only, unit pmol per mg tissue assumed.

Example compounds with recorded Anthocyanin uptake, Gel pH 3.5:
| compound | reported value |
| --- | --- |
| CC1OC(OCC2OC(Oc3cc4c(O)cc(O)cc4[o+]c3-c3ccc(O)c(O)c3)C(OC3OCC(O)C(O)C3O)C(O)C2O)C(O)C(O)C1O (stereo not shown) [cyanidin 3-xylosylrutinoside] | 1.2 |
| OC[C@H]1O[C@@H](Oc2cc3c(O)cc(O)cc3[o+]c2-c2ccc(O)c(O)c2)[C@H](O[C@@H]2OC[C@@H](O)[C@H](O)[C@H]2O)[C@@H](O)[C@@H]1O.[Cl-] [Cyanidin 3-sambubioside, cyanidin 3-sambubioside] | 0.6 |
| C[C@@H]1O[C@@H](OC[C@H]2O[C@@H](Oc3cc4c(O)cc(O)cc4[o+]c3-c3ccc(O)c(O)c3)[C@H](O)[C@@H](O)[C@@H]2O)[C@H](O)[C@H](O)[C@H]1O [cyanidin 3-rutinoside] | 9.3 |

Here is the next item to consider.
Request: Provide Anthocyanin uptake, Gel pH 3.5, system Human Oral Mucosa Explant Tissues, entry OC[C@H]1O[C@@H](Oc2cc3c(O)cc(O)cc3[o+]c2-c2ccc(O)c(O)c2)[C@H](O)[C@@H](O)[C@@H]1O [cyanidin 3-glucoside]
Result: 13.6

* * *

tested on: Human Oral Mucosa Explant Tissues; experiment: Effect of final gel pH on anthocyanin uptake into human oral mucosa explant tissues; format: in vitro ADME; conditions: explant sample 007; 10% w/w FBR gel
measured endpoint: Anthocyanin uptake, Gel pH 6.5 (pmol per mg tissue)
Numeric answer only, unit pmol per mg tissue assumed.

| molecule | reported value |
| --- | --- |
| OC[C@H]1O[C@@H](Oc2cc3c(O)cc(O)cc3[o+]c2-c2ccc(O)c(O)c2)[C@H](O[C@@H]2OC[C@@H](O)[C@H](O)[C@H]2O)[C@@H](O)[C@@H]1O.[Cl-] [Cyanidin 3-sambubioside, cyanidin 3-sambubioside] | 0.4 |

Request: For C[C@@H]1O[C@@H](OC[C@H]2O[C@@H](Oc3cc4c(O)cc(O)cc4[o+]c3-c3ccc(O)c(O)c3)[C@H](O)[C@@H](O)[C@@H]2O)[C@H](O)[C@H](O)[C@H]1O [cyanidin 3-rutinoside] , write its Anthocyanin uptake, Gel pH 6.5.
Result: 8.1

Request: For OC[C@H]1O[C@@H](Oc2cc3c(O)cc(O)cc3[o+]c2-c2ccc(O)c(O)c2)[C@H](O)[C@@H](O)[C@@H]1O [cyanidin 3-glucoside] , write its Anthocyanin uptake, Gel pH 6.5.
Result: 22.8

Request: For CC1OC(OCC2OC(Oc3cc4c(O)cc(O)cc4[o+]c3-c3ccc(O)c(O)c3)C(OC3OCC(O)C(O)C3O)C(O)C2O)C(O)C(O)C1O (stereo not shown) [cyanidin 3-xylosylrutinoside] , write its Anthocyanin uptake, Gel pH 6.5.
Result: 1.0

* * *

# Anthocyanin uptake, Gel pH 6.5 annotations
test system: Human Oral Mucosa Explant Tissues; assay: Effect of final gel pH on anthocyanin uptake into human oral mucosa explant tissues; assay type: in vitro ADME; details: explant sample 002; 10% w/w FBR gel
I'd appreciate it if you wrote the number followed by its unit.

Example molecules with recorded Anthocyanin uptake, Gel pH 6.5:
| molecule | reported value |
| --- | --- |
| OC[C@H]1O[C@@H](Oc2cc3c(O)cc(O)cc3[o+]c2-c2ccc(O)c(O)c2)[C@H](O[C@@H]2OC[C@@H](O)[C@H](O)[C@H]2O)[C@@H](O)[C@@H]1O.[Cl-] [Cyanidin 3-sambubioside, cyanidin 3-sambubioside] | 2.9 pmol per mg tissue |
| CC1OC(OCC2OC(Oc3cc4c(O)cc(O)cc4[o+]c3-c3ccc(O)c(O)c3)C(OC3OCC(O)C(O)C3O)C(O)C2O)C(O)C(O)C1O (stereo not shown) [cyanidin 3-xylosylrutinoside] | 10.3 pmol per mg tissue |
| C[C@@H]1O[C@@H](OC[C@H]2O[C@@H](Oc3cc4c(O)cc(O)cc4[o+]c3-c3ccc(O)c(O)c3)[C@H](O)[C@@H](O)[C@@H]2O)[C@H](O)[C@H](O)[C@H]1O [cyanidin 3-rutinoside] | 67.8 pmol per mg tissue |

Here is the next item to consider.
Request: For OC[C@H]1O[C@@H](Oc2cc3c(O)cc(O)cc3[o+]c2-c2ccc(O)c(O)c2)[C@H](O)[C@@H](O)[C@@H]1O [cyanidin 3-glucoside] , write its Anthocyanin uptake, Gel pH 6.5.
Result: 18.5 pmol per mg tissue

Hello, the source for this data is patent US20100047371A1, in case you need it.
